The following binders are shown together with reported IC50, XG-1 proliferation values.
Biological target: T1, IL6-R on U266 cells (human, UniProt P08887 20-468)
T1 sequence (looked up): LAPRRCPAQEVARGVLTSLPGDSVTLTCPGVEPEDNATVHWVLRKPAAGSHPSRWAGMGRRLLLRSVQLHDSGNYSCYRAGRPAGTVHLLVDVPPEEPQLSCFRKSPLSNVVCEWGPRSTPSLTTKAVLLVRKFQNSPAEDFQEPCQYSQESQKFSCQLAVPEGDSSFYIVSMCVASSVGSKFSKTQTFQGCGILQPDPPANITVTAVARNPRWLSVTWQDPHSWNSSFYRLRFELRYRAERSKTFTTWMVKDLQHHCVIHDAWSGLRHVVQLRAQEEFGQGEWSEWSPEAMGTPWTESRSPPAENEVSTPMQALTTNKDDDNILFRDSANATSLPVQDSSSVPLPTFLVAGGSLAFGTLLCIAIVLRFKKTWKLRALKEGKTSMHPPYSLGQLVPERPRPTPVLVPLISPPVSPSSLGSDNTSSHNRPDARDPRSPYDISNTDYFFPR
Test: cell-based or functional assay
Give just the number in nM; leave the unit off.

Some entries whose results are on file:
IL6R06 (VHH, also called PMP32E2; PMP 32 E2) VHH: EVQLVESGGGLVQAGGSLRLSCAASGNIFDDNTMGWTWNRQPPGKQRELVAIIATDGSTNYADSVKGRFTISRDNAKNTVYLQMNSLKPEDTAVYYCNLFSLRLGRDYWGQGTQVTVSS = 42
IL6R04 (VHH, also called PMP32C9; PMP 32 C9) VHH: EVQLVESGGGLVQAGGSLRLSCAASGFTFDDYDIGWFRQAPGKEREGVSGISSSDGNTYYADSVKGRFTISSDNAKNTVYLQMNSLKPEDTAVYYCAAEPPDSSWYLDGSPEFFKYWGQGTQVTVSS = 0.089
IL6R08 (VHH, also called PMP34A12; PMP 34 A12) VHH: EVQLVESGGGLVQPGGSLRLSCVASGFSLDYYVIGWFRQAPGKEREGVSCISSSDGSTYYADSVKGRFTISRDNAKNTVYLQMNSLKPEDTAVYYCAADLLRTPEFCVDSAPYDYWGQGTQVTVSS = 36.6
IL6R09 (VHH, also called PMP34G9; PMP 34 G9) VHH: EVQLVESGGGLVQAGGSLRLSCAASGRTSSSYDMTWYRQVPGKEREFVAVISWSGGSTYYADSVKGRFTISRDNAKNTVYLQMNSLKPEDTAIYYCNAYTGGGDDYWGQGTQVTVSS = 2.75
IL6R11 (VHH, also called PMP35E11; PMP 35 E11) VHH: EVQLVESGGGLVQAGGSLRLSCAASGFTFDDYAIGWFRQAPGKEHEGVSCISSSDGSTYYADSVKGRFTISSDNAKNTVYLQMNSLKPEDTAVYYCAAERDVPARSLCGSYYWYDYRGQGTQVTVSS = 5.37
IL6R07 (VHH, also called PMP33A3; PMP 33 A3) VHH: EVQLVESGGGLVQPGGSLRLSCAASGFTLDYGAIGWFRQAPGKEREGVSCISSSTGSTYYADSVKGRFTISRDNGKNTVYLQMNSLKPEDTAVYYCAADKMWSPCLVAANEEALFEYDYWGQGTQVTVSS = 50.5

stdin: GET /values?readout=IC50, XG-1 proliferation&item= IL6R13 (VHH, also called PMP35H4; PMP 35 H4) VHH: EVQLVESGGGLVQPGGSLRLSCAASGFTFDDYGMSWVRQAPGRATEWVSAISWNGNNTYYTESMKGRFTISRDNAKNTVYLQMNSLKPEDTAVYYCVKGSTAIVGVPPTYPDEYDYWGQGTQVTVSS
stdout: 1.4

stdin: GET /values?readout=IC50, XG-1 proliferation&item= IL6R10 (VHH, also called PMP35C10; PMP 35 C10) VHH: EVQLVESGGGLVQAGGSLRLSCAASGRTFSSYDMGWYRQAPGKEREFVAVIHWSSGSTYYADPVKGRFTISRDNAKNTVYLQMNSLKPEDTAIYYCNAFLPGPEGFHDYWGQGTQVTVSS
stdout: 2.55

stdin: GET /values?readout=IC50, XG-1 proliferation&item= IL6R02 (VHH, also called PMP30C11; PMP 30 C11) VHH: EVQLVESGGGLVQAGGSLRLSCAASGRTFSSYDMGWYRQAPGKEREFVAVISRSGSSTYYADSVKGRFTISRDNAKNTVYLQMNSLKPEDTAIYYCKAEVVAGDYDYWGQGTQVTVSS
stdout: 31

stdin: GET /values?readout=IC50, XG-1 proliferation&item= IL6R05 (VHH, also called PMP32E10; PMP 32 E10) VHH: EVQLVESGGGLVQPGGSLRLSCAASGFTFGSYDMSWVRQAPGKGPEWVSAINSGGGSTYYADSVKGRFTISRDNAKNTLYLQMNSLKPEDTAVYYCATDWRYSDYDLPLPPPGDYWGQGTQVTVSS
stdout: 7.29

Data credit: patent US20140221623A1
